B1: Tryptophan synthase alpha chain, P0A877 (parent)
chain: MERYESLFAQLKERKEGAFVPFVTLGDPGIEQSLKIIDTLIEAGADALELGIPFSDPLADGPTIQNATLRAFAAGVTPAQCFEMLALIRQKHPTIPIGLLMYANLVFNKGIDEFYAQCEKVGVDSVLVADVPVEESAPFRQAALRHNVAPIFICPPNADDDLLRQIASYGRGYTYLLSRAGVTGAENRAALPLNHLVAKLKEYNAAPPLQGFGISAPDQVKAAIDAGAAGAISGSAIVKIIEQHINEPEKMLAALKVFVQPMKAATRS

# Variants of: B1
# protocol conditions: Escherichia coli (strain K12); pH 9; Thermal; DSC; Sodium tetraborate 1 mM; reversible: yes; structure 1WQ5; whole UniProt chain shown
quantity name: change of melting temperature, mutant - wild type (higher = more stable)
The reply should read as a number followed by its unit.

Here's what some known entries look like.
>  <mutation descriptor>
P57A

>  <assay result>
-0.1 °C

$$$$
>  <mutation descriptor>
P207A

>  <assay result>
-6.7 °C

$$$$
>  <mutation descriptor>
P132A

>  <assay result>
-2.6 °C

$$$$
>  <mutation descriptor>
P96A

>  <assay result>
-6.3 °C

$$$$

Which change of melting temperature, mutant - wild type (higher = more stable) is listed for "P132G" ? -2.3 °C
